# IC50 per entry
# Target Of Assay: UniProt A0A024AXB9
# Assay Method Text: Functional biochemical assay to identify treatments for viral infectious disease that targets Zika NS2B-NS3 protease. Utilizing a direct enzyme activity measurement method, reading the fluorescence intensity is used to characterize the relative potency of inhibitors as IC50.
# Set-up: species or system PRVABC59

Structure String	Target Of Assay	IC50
CS(=O)(=O)c1cccc(NC(=O)c2cc(Cl)cc(NC(=O)OCc3ccccc3)c2)c1	UniProt A0A024AXB9	> 99.5 µM
CC(=O)Nc1cccc(C(=O)Nc2ccc3c(c2)CNC3)c1	UniProt A0A024AXB9	0.863 µM
Cc1ccc2[nH]ncc2c1C(=O)Nc1ccc2c(c1)CNC2	UniProt A0A024AXB9	> 25 µM
NCc1cccc(CNC(=O)[C@@H](NC(=O)OCc2ccccc2)c2ccc(OCc3ccccc3)cc2)n1	UniProt A0A024AXB9	65.6 µM
N#Cc1c[nH]c2c(C(=O)Nc3ccc4c(c3)CNC4)cccc12	UniProt A0A024AXB9	0.582 µM
NCc1cccc(NC(=O)c2cc(Cl)ccc2NS(=O)(=O)c2ccccc2)c1	UniProt A0A024AXB9	> 99.5 µM
O=C(Cn1ccnc(N2CC[C@H](CO)C2)c1=O)Nc1ccccc1	UniProt A0A024AXB9	> 99.5 µM
Cc1c[nH]c2ncnc(C(=O)Nc3ccc4c(c3)CNC4)c12	UniProt A0A024AXB9	> 25 µM
CS(=O)(=O)NC(=O)c1cc(CN)cc(NC(=O)c2cc(Cl)cc(NC(=O)OCc3ccccc3)c2)c1	UniProt A0A024AXB9	7.05 µM
O=C(Nc1ccc2c(c1)[C@H]1CC[C@H]2N1)c1cc(Cl)cc2[nH]ncc12	UniProt A0A024AXB9	5.65 µM
COc1nc(Cl)c(CSc2nc(C)co2)s1	UniProt A0A024AXB9	> 99.5 µM
C1=C(c2cccnc2)CN(Cc2c[nH]c3ccccc23)CC1	UniProt A0A024AXB9	> 99.5 µM
NCc1cc(S(=O)(=O)Nc2ccc(Cl)cc2C(=O)O)ccc1Oc1ccccc1	UniProt A0A024AXB9	> 99.5 µM
NCc1ccc(NC(=O)[C@@H](NC(=O)OCc2ccccc2)c2ccc(OCc3ccccc3)cc2)cc1	UniProt A0A024AXB9	> 99.5 µM
CC1(c2nc(C(=O)Nc3cc(-c4cccnc4)ccn3)no2)CC1	UniProt A0A024AXB9	> 25 µM
CN1CCN(Cc2ccccc2CNC(=O)[C@@H](NC(=O)OCc2ccccc2)c2ccc(OCc3ccccc3)cc2)CC1	UniProt A0A024AXB9	> 99.5 µM
Cc1cc(CN)cc(NS(=O)(=O)c2ccc(Oc3ccccc3Cl)cc2)c1	UniProt A0A024AXB9	> 99.5 µM
O=C(NCC(F)F)[C@H](Nc1ccc2c(n1)CNC2)c1cc(Cl)cc(C2CC2)c1	UniProt A0A024AXB9	1.33 µM
Cn1nc(C2CC2)cc1C(=O)Nc1cc(-c2cccnc2)ccn1	UniProt A0A024AXB9	> 25 µM
Cc1c(C(=O)Nc2cc(C(=O)N3CC4(CCO4)C3)ccn2)cc(C2CC2)n1C	UniProt A0A024AXB9	> 25 µM
O=C1Cc2c(cccc2C(=O)NCC2(F)CC3(CCOCC3)C2)N1	UniProt A0A024AXB9	> 25 µM
NCc1nc(-c2ccc(NC(=O)c3cc(Cl)cc(NC(=O)OCc4ccccc4)c3)cc2)n[nH]1	UniProt A0A024AXB9	> 99.5 µM
C=CC[C@H](Nc1cc(Cl)cc(NC(=O)OCc2ccccc2)c1)c1cccc(CN)c1	UniProt A0A024AXB9	7.69 µM
NCc1ccncc1NS(=O)(=O)c1ccc(Oc2ccccc2Cl)cc1	UniProt A0A024AXB9	94.2 µM
Cc1cnc([C@H]2CCCN(C(=O)Nc3ccc4c(c3)CNC4)C2)s1	UniProt A0A024AXB9	> 25 µM
Cc1c(C(=O)Nc2cc(C(=O)N(C)C3COC3)ccn2)cc(C2CC2)n1C	UniProt A0A024AXB9	> 25 µM
NCc1cccc(NC(=O)[C@H](NC(=O)OCc2ccccc2)c2cccc(OCc3ccccn3)c2)c1	UniProt A0A024AXB9	> 99.5 µM
CN(C)Cc1ccc(NC(=O)c2cc(Cl)cc(NC(=O)OCc3ccccc3)c2)cc1	UniProt A0A024AXB9	70.3 µM
Cn1nccc1-c1ccc([C@@H](NC(=O)OCc2ccccc2)C(=O)Nc2cccc(CN)c2)cc1	UniProt A0A024AXB9	> 99.5 µM
O=C(Nc1ccc2c(c1)CNC2)c1cc(Cl)cc2[nH]c(COc3ccccn3)nc12	UniProt A0A024AXB9	0.21 µM
C[C@H](NC(=O)c1cc(Cl)cc(NC(=O)OCc2ccccc2)c1)C(=O)O	UniProt A0A024AXB9	> 99.5 µM
O=C(Nc1cc(Cl)cc(C(=O)Nc2cncc(C(=O)O)c2)c1)OCc1ccccc1	UniProt A0A024AXB9	> 99.5 µM
O=C(Nc1ccc2c(c1)CNC2)c1cc(Cl)cc2nn(C3CCC3)cc12	UniProt A0A024AXB9	0.176 µM
CC[C@H](Cc1nnn[nH]1)c1ccc(NC(=O)c2cc(Cl)cc(Cl)c2OC)cc1	UniProt A0A024AXB9	> 99.5 µM
NCc1nc(CNC(=O)c2cc(Cl)cc(NC(=O)OCc3ccccc3)c2)cs1	UniProt A0A024AXB9	> 99.5 µM
CCn1ncc2c(C(=O)Nc3ccc4c(c3)CNC4)cc(C)nc21	UniProt A0A024AXB9	4.41 µM
CC[C@H]1CN(C(=O)c2ccc(C3(CN)CC3)cc2)Cc2ccccc21	UniProt A0A024AXB9	> 99.5 µM
O=C(Nc1ccc2c(c1)CNC2)c1ccc2ccncc2c1	UniProt A0A024AXB9	13.9 µM
COC[C@H](NC(=O)c1cc(Cl)cc(NC(=O)OCc2ccccc2)c1)c1nnn[nH]1	UniProt A0A024AXB9	> 99.5 µM
NCc1cccc(NC(=O)[C@@]23CCC[C@H](C2)N3C(=O)OCc2ccccc2)c1	UniProt A0A024AXB9	> 99.5 µM
Cc1cc(C(=O)Nc2ccc3c(c2)CNC3)c2cnn(C)c2n1	UniProt A0A024AXB9	5.56 µM

====

# Target Of Assay: Nonstructural protein 3 (Zika virus, UniProt A0A024AXB9)
# Sequence (A0A024AXB9 whole entry): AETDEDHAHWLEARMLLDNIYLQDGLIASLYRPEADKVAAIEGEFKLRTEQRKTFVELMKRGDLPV
# Assay Method Text: Functional biochemical assay to identify treatments for viral infectious disease that targets Zika NS2B-NS3 protease. Utilizing a direct enzyme activity measurement method, reading the fluorescence intensity is used to characterize the relative potency of inhibitors as IC50.
# Set-up: species or system PRVABC59
# IC50 per entry

Structure String	IC50
O=C(O)c1ccc2nc(Cc3c[nH]c4ccc(Cl)cc34)cn2c1	> 99.5 µM
Cc1ccc(-c2nc(NC(=O)[C@H](NC(=O)OCc3ccccc3)c3ccc(OCc4ccccc4)cc3)sc2CN(C)C)cc1	> 99.5 µM
Cc1c(NC(=O)OCc2ccccc2)cc(C(=O)Nc2cccc(CN)c2)cc1C(F)(F)F	> 99.5 µM
Clc1cc(Cl)c2c(CN3CCC(c4cscn4)CC3)c[nH]c2c1	74.3 µM
O=C(Nc1cc(Cl)cc(C(=O)Nc2n[nH]c3c2CNC32CC2)c1)OCc1ccccc1	> 99.5 µM
CCOC(=O)[C@H]1[C@H](c2cc(Cl)cc(NC(=O)OCc3ccccc3)c2)[C@H]1c1cccc(-c2nnn[nH]2)c1	26.9 µM
NCc1cc(NC(=O)c2cc(Cl)cc(NC(=O)OCc3ccccc3)c2)cc(C2CC2)c1	6.67 µM
Cc1c(C(=O)Nc2cc(C(=O)N3CCOCC3)ccn2)cc(C2CC2)n1C	> 25 µM
CCn1ccnc(N2CC[C@@H](CC(N)=O)C2)c1=O	> 99.5 µM
O=C(Nc1ccc2c(c1)COC2)c1cc(Cl)cc2[nH]ncc12	> 99.5 µM
NCc1cccc([C@H](CCCO)Nc2cc(Cl)cc(NC(=O)OCc3ccccc3)c2)c1	27.4 µM
c1ccc2c(CN3CCC(c4nn[nH]n4)CC3)c[nH]c2c1	> 99.5 µM
Cc1c(C(=O)Nc2ncc3c(c2C#N)CCOC3)cc(C2CC2)n1C	> 25 µM
CCn1c(=O)c(N2CC[C@H](CO)C2)nc2ccc(C(=O)OC)cc21	> 99.5 µM
Cn1ccc(-c2n[nH]cc2CN2CCC(c3nc4ccccc4s3)CC2)n1	> 99.5 µM
O=C(Nc1cc(Cl)cc(C(=O)NCC2(CO)CCNCC2)c1)OCc1ccccc1	> 99.5 µM
CCNC(=O)c1ccc2nc(N3CC[C@H](CO)C3)c(=O)n(CC)c2c1	> 99.5 µM
Cc1[nH]c2ccccc2c1[C@H]1CCN(C(=O)Nc2ccc3c(c2)CNC3)C1	> 25 µM
Cn1nc(C(=O)Nc2ccc3c(c2)CNC3)c2cc(Br)ccc21	6.63 µM
O=C(Nc1cc(-c2cccnc2)ccn1)c1cccc(C2CC2)c1	> 25 µM
O=C(Nc1ccc2c(c1)CNC2)c1cc(Cl)nc2[nH]ccc12	2.24 µM
